- System: SW-620 colon
- test-summary: NCI tumour cell line growth inhibition, 48 h; in the data active = GI50 below about 0.43 µM; inactive = the rest
Please state which outcome applies, choosing from active, inactive

Query: Recorded test outcome, item `C=C(CNC(=O)c1ccccc1)c1ccc(C(=O)Nc2ccccc2N)cc1`
Result: inactive

Query: Recorded test outcome, item `FC(F)(F)c1cccc2c(SCCc3n[nH]c(=S)o3)ccnc12`
Result: inactive

Query: Recorded test outcome, item `CCNNC(=O)[C@@H]1[C@H](c2cc(OC)c(OC)c(OC)c2)c2cc3c(cc2[C@H](O)[C@H]1CO)OCO3`
Result: active

====

- Test system: U251 CNS
- test-summary: NCI tumour cell line growth inhibition, 48 h
Can you tell me TGI for the items I'm about to list?

The following molecules have reported results that may help.
INSERT INTO results (molecule, test_readout, assay_value) VALUES
  ('O=C(O)CNC(=O)c1ccc2cc(C(=O)N3CC(CCl)c4ccc([N+](=O)[O-])cc43)[nH]c2c1 (centres undefined)', 'TGI', '> 100 µM'),
  ('COc1ccc(-c2ccc(-c3ccc(C(=N)N)cn3)o2)cc1Cl', 'TGI', '3.53 µM'),
  ('NC(=O)c1ccccc1NC(=O)c1ccccc1Cl', 'TGI', '> 100 µM'),
  ('CCOc1nccc2c1nc(-c1nonc1N)n2CC', 'TGI', '> 25 µM'),
  ('CN(C)CC1CCC/C(=C\c2ccc(OC(=O)/C=C/c3ccc(Cl)c(Cl)c3)cc2)C1=O (centres undefined)', 'TGI', '27.9 µM'),
  ('Cc1cc(N2CCCC2)c([N+](=O)[O-])cc1[N+](=O)[O-]', 'TGI', '> 100 µM'),
  ('Cc1ccc2nc(-c3ccc(N)c4ccccc34)[nH]c2c1', 'TGI', '22.5 µM'),
  ('CC(=O)[O-].[Zn].c1ccc(/C(=N\Nc2ccccn2)c2ccccn2)cc1', 'TGI', '1.88 µM');

Parameter requested: TGI. Apply to each item below.
1. O=C1/C(=C/c2ccccc2)NC(=S)N1CN1CCCCC1
2. COc1ccc2c(c1)CCN1CCCc3ccccc3C21 (centres undefined)
3. N#Cc1nc2c(S(=O)(=O)c3ccccc3)c(N)n(Cc3ccc(Cl)cc3)c2nc1C#N
4. CC(=O)OC1CCC2C(=CCC3C2(C)C(=O)CC2(C)C(C4(C)OC(C(C)C)=CC4=O)C(O)CC32C)C1(C)C (centres undefined)
5. Cc1cnccc1N=Nc1ccc(N(C)C)cc1
6. C=C1C(OC/C=C/COC2O[C@@H]3O[C@@]4(C)CC[C@H]5[C@H](C)CC[C@@H](C2=C)[C@@]35OO4)O[C@@H]2O[C@@]3(C)CC[C@H]4[C@H](C)CC[C@@H]1[C@@]24OO3 (some centres undefined)

Result:
1: > 100 µM; 2: > 100 µM; 3: 18.3 µM; 4: > 100 µM; 5: 70.9 µM; 6: 25.7 µM

Parameter requested: TGI. Apply to each item below.
1. O=C(CCSc1ccnc2c(C(F)(F)F)cccc12)N/N=C/c1cc(Cl)c(Cl)cc1Cl
2. O=C1CS(=O)(=O)C(c2cccc(Oc3ccccc3)c2)N1c1ccccc1 (centres undefined)
3. COc1ccc2[nH]c(C(=O)N3CC(CCl)c4c3cc(N)c3ccccc43)cc2c1 (centres undefined)
4. Clc1cc(-c2ccccc2)nc2ccccc12
5. COc1ccc(C2SCC(=O)N2NC(=O)C(C)Oc2ccccc2C)cc1 (centres undefined)
6. CCCc1nnc2sc(COc3cc(Cl)c(OCc4nn5c(CCC)nnc5s4)cc3Cl)nn12
7. COc1ccc(N=C2C(=Nc3ccc(OC)cc3)N(c3ccc(N(C)C)cc3)C(=S)N2c2ccc(OC)cc2)cc1
8. C[C@@H](COCCC(=O)N1CCN(c2ncc(C(F)(F)F)cn2)CC1)Nc1cn[nH]c(=O)c1C(F)(F)F

Result:
["32.4 µM", "33.3 µM", "0.0409 µM", "> 100 µM", "> 100 µM", "> 100 µM", "> 100 µM", "> 100 µM"]
